- System: HepG2-ACTB-RAB5A
- procedure.text: lowest phenotypically active concentration; higher = less potent
- assay.conditions: treatment time: 24 h
reported.endpoint: lowest phenotypically active concentration

O=C(NOCC1CC1)c1ccc(F)c(F)c1Nc1ccc(I)cc1Cl	≤ 0.3 µM

So what lowest phenotypically active concentration did Cc1ccc([N+](=O)[O-])cc1S(=O)(=O)N(C)/N=C/c1cnc2ccc(Br)cn12 get with HepG2-ACTB-RAB5A?
≤ 0.3 µM

GET /values?readout=lowest phenotypically active concentration&system=HepG2-ACTB-RAB5A&item= CC(=O)O[C@H]1C(=O)[C@@]2(C)[C@H]([C@H](OC(=O)c3ccccc3)[C@]3(O)C[C@H](OC(=O)[C@H](O)[C@@H](NC(=O)c4ccccc4)c4ccccc4)C(C)=C1C3(C)C)[C@]1(OC(C)=O)CO[C@@H]1C[C@@H]2O [paclitaxel]
≤ 0.3 µM

----------
- System: WPMY1-CANX-COX4
- procedure.text: phenotypically active (imaging signature differs from DMSO and reproducible) at any of 0.3-9 uM (binary (1 = active, 0 = inactive)); higher = active
- assay.conditions: treatment time: 24 h
Structures can show the parent of a compound that is named as a salt.
// one of Yes (active), No (inactive), no free text

Worked examples, 5 compounds total:
Cc1cc(Nc2cc(C)c(C#N)c(NC(C)CCCC(C)(C)O)n2)n[nH]1 (configuration not stated) [TC-A 2317 hydrochloride]	Yes
CC(=O)CCCCn1c(=O)c2c(ncn2C)n(C)c1=O	No
O=C(O)Cc1cccc(OCCCN(Cc2cccc(C(F)(F)F)c2Cl)CC(c2ccccc2)c2ccccc2)c1 [GW 3965 hydrochloride]	No
COCC(=O)O[C@]1(CCN(C)CCCc2nc3ccccc3[nH]2)CCc2cc(F)ccc2[C@@H]1C(C)C	Yes
Cc1ncc([N+](=O)[O-])n1CCOC(=O)NC(Nc1ncccn1)C(Cl)(Cl)Cl (configuration not stated)	No

Could you check what this test reported for Nc1ccc(O)c(C(=O)O)c1 ?
No

Could you kindly confirm the outcome this assay logged for C[C@]1(O)C[C@@H](c2nc(-c3ccc4ccc(-c5ccccc5)nc4c3)c3c(N)nccn32)C1 ?
Yes

Hi, do you know how CC/C(=C(\CC)c1ccc(O)c(CN(CC)CC)c1)c1ccc(O)c(CN(CC)CC)c1 came out in this test?
Yes

----------
- Test system: HepG2-GM130-SQSTM1
- procedure.text: phenotypically active (imaging signature differs from DMSO and reproducible) at any of 0.3-9 uM (binary (1 = active, 0 = inactive)); higher = active
- assay.conditions: treatment time: 24 h
Where a name gives a salt, the structure may show the parent alone.
Answer with one of the outcomes given here: active, inactive

Solved cases below.
CC(CN1c2ccccc2Sc2ccccc21)N(C)C (centres undefined)	active
C[C@H]1COCCN1c1cc(C2(S(=O)(=O)C3CC3)CC2)nc(-c2ccc(NC(=S)NCCO)cc2)n1	active
OCCn1cc(-c2cnc3nnn(Cc4ccc5ncccc5c4)c3n2)cn1	inactive
O=C([C@@H](Cc1cccc(C(F)(F)F)c1)NS(=O)(=O)c1cc(F)c2c(c1)CCNC2)N1CCCC1 [(R)-PFI 2 hydrochloride]	inactive
O=c1c(-c2ccc(O)cc2)coc2cc(O)cc(O)c12	inactive

// return assay outcome for CC#CC(=O)N1CCC[C@H]1c1nc(-c2ccc(C(=O)Nc3ccccn3)cc2)c2c(N)nccn12
inactive

# fetch the recorded call for O=C(CCCCCCC(=O)Nc1ccc([C@H]2O[C@@H](CSc3nc(-c4ccccc4)c(-c4ccccc4)o3)C[C@@H](c3ccc(CO)cc3)O2)cc1)NO here
inactive

Assay result, entry CNCCCC12CCC(c3ccccc31)c1ccccc12 — outcome?
active

So what was the verdict on Cc1ccc(Cl)c(Nc2ccccc2C(=O)O)c1Cl in this test?
inactive

Which result was noted for this compound in the test: COc1ccc(N(C)c2nc(C)nc3ccccc23)cc1 [MPC 6827 hydrochloride]
active

# lookup: test call for CC(=O)S[C@@H]1CC2=CC(=O)CC[C@]2(C)[C@H]2CC[C@@]3(C)[C@@H](CC[C@@]34CCC(=O)O4)[C@H]12
inactive

What was the test verdict on CN1C(=O)CC[C@H]1c1cccnc1 [(-)-Cotinine] ?
inactive

How was CCN1C(=O)NC(c2ccccc2)C1=O (centres undefined) classified in this test?
inactive

What did this assay record as the result for CC[C@H](C)C(=O)O[C@H]1C[C@H](O)C=C2C=C[C@H](C)[C@H](CC[C@@H](O)C[C@@H](O)CC(=O)O)[C@H]21 ?
inactive

How did this test come out for O=c1ncccn1[C@@H]1O[C@H](CO)[C@@H](O)[C@H]1O ?
inactive

What was the test verdict on Cc1cccc(-c2n[nH]cc2-c2ccc(F)c(-c3cnn(CCO)c3)c2)n1 ?
inactive

In this assay, the call recorded for Cc1cccc(CCN2CCC(C(=O)c3ccc(NS(C)(=O)=O)cc3)CC2)n1 was what?
inactive

Tell me the recorded outcome of this test for Nc1ccc(O)c(C(=O)O)c1 .
inactive

Would you mind telling me which call this test gave O=C(c1cccc(Cl)c1F)N1CCN(Cc2cccc(Nc3nccs3)n2)CC1 ?
active

----------
Recorded lowest phenotypically active concentration by entry
- Tested on: WPMY1-GM130-SQSTM1
- procedure.text: lowest phenotypically active concentration; higher = less potent
- assay.conditions: treatment time: 24 h

Consider the following illustrative entries.
CN1C/C(=C/c2ccc(B(O)O)cc2)C(=O)/C(=C/c2ccc(B(O)O)cc2)C1	≤ 0.3 µM
Cn1cc(C2=C(c3ccc(Cl)cc3Cl)C(=O)NC2=O)c2ccccc21	≤ 0.3 µM

Moving on to the next molecule.
Looking for the measured lowest phenotypically active concentration of CNc1nc(-c2ccc3c(N)n[nH]c3c2)cc(N2C[C@@H](C(=O)NC3CCCCC3)CC[C@H]2C)n1 , can you help?
≤ 0.3 µM

----------
- Test system: HepG2-ACTB-RAB5A
- procedure.text: phenotypically active (imaging signature differs from DMSO and reproducible) at any of 0.3-9 uM (binary (1 = active, 0 = inactive)); higher = active
- assay.conditions: treatment time: 24 h
reported.endpoint: phenotypically active
Keep it simple and answer with nothing but the number.

C#C[C@]1(O)CC[C@H]2[C@@H]3CCc4cc(OC5CCCC5)ccc4[C@H]3CC[C@@]21C [quinestrol]	0
CC1(C)CCC(C)(C)c2cc(C3(c4ccc(C(=O)O)cc4)OCCO3)ccc21	0

Entry under review: CCc1cccc2c3c([nH]c12)C(CC)(CC(=O)O)OCC3 (stereo unspecified) [etodolac] . Reported phenotypically active?
0

Would you kindly share the measured phenotypically active for COc1cc2c(NC3CCN(C)CC3)nc(N3CCCN(C)CC3)nc2cc1OCCCN(C)C ?
0

State the recorded phenotypically active for this entry: CC(CN1c2ccccc2Sc2ccccc21)N(C)C (stereo unspecified) [promethazine]
1

Suppose we examine the compound OC[C@H]1O[C@@H](Oc2ccc(O)cc2)[C@H](O)[C@@H](O)[C@@H]1O [Arbutin] ; what phenotypically active value has been reported?
0

State the recorded phenotypically active for this entry: N=C1NC(=O)/C(=C\c2ccc(O)cc2)S1 [Mirin]
0

Would you mind telling me what phenotypically active value was observed for Nc1ncnc2c1ncn2[C@@H]1O[C@H](CO)C[C@H]1O [Cordycepin] ?
0

----------
- Tested on: WPMY1-TP53BP1-CLTA
- procedure.text: phenotypically active (imaging signature differs from DMSO and reproducible) at any of 0.3-9 uM (binary (1 = active, 0 = inactive)); higher = active
- assay.conditions: treatment time: 24 h
// phenotypically active lookup, one value per entry
Please state the value as a number alone, without comment.

Recorded phenotypically active, per entry:
Cc1ccc(NC2=CC(=O)c3sc(C)nc3C2=O)cc1 [Ryuvidine]	0
Cc1cnc(NC(=O)Nc2cc(Br)c(C)cc2OC[C@@H]2CNCCO2)cn1	1
CCCCCCCCCCCCCCCC(=O)C(F)(F)F	0
NS(=O)(=O)c1cc2c(cc1Cl)NC(C1CC3C=CC1C3)NS2(=O)=O (centres undefined) [cyclothiazide]	0
CCCCCCOc1cc2c(cc1N(C)c1ncc(C(=O)O)cn1)C(C)(C)CCC2(C)C	0

Any idea what its phenotypically active is? The molecule is Cc1ccc(-c2cc(C(F)(F)F)nn2-c2ccc(S(N)(=O)=O)cc2)cc1 [celecoxib]
0

Param item = Clc1ccc(N/N=C(\c2ccccc2)c2ccccn2)nc1 ; retrieve measured phenotypically active.
1

----------
- Test system: A549-TUBA1B-RELA
- procedure.text: phenotypically active (imaging signature differs from DMSO and reproducible) at any of 0.3-9 uM (binary (1 = active, 0 = inactive)); higher = active
- assay.conditions: treatment time: 24 h
Quick reference for phenotypically active among some molecules

CC[C@H](Nc1ncnc2[nH]cnc12)c1nc2cccc(F)c2c(=O)n1-c1ccccc1	0 (inactive)

Now let's try a different one.
For A549-TUBA1B-RELA, provide phenotypically active of C[C@@H]1C[C@H]2[C@@H]3CCC4=CC(=O)C=C[C@]4(C)[C@@]3(Cl)[C@@H](O)C[C@]2(C)[C@@]1(OC(=O)c1ccco1)C(=O)CCl [mometasone furoate] please.
1 (active)

Just for reference, the supplement of paper PMC7411054 is where these values come from.
